B1: library; numbered along this chain (parent)
chain: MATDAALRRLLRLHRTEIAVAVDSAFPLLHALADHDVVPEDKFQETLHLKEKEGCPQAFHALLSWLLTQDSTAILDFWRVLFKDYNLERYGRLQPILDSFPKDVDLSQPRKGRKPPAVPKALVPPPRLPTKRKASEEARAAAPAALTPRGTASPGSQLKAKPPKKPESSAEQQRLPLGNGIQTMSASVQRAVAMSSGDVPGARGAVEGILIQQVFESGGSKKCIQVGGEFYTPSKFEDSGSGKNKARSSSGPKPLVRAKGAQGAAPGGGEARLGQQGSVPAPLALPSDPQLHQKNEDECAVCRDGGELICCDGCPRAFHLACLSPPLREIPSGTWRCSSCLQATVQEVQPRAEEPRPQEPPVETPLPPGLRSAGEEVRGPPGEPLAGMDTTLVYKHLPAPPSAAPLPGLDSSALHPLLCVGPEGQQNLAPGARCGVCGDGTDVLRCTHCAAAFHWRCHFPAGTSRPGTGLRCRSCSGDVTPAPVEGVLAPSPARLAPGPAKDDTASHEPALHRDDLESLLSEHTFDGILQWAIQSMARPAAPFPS

Variants of: B1
Assay: AIRE transcriptional activation functional score (insulin promoter-GFP; nonsense median 0, synonymous median 1) (normalised score); higher = higher AIRE activity (more reporter activation)
Details: with insulin promoter-GFP reporter in HEK293
REPORTED METRIC: AIRE transcriptional activation functional score
Give the figure by itself; no unit, no explanation.

Worked examples, 3 variants total:
| VARIANT STRING | NUMERIC READOUT |
| --- | --- |
| S250H | 0.963 |
| G306C | 0.922 |
| I211F | 0.181 |

Next, consider the following variant.
Give the measured AIRE transcriptional activation functional score of A61P . -0.68
